Please go through the items and note down their isoTOP-ABPP ratio (R) at liganded lysine P00367_K480.
# measured.target: GLUD1 Glutamate dehydrogenase 1, mitochondrial (Homo sapiens)
# Construct: isoTOP-ABPP experiments performed in cell lysates (in vitro); endogenous in cells; host or cells: MDA-MB-231 soluble lysate
# Sequence (P00367 54-558): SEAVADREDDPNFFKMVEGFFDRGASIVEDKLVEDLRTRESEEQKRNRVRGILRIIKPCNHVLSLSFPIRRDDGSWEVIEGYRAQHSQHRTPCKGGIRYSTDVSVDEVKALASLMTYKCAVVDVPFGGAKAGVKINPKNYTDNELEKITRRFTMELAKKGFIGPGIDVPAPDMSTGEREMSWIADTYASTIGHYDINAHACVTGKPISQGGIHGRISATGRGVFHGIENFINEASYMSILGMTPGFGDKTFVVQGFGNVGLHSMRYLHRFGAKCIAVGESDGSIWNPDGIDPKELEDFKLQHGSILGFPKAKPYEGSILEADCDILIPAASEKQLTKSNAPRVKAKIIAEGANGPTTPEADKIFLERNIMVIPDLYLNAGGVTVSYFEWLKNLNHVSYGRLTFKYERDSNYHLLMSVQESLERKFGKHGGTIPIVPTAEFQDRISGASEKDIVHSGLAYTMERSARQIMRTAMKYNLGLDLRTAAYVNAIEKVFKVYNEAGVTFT
# measurement.description: competitive isoTOP-ABPP
# Format: binding
# condition.info: 50 uM, in vitro, sol, 231
Give bare numbers.

Solved entries:
O=C(Oc1ccc([N+](=O)[O-])cc1[N+](=O)[O-])C(c1ccccc1)(c1ccccc1)c1ccccc1 [fragment 42, 2,4-Dinitrophenyl 2,2,2-triphenylacetate] ... 1.1
O=C(Oc1ccc([N+](=O)[O-])cc1[N+](=O)[O-])c1ccccc1Nc1cccc(C(F)(F)F)c1 ... 1.2
O=C(CC12CC3CC(CC(C3)C1)C2)Oc1ccc([N+](=O)[O-])cc1[N+](=O)[O-] ... 1.3
O=C(Oc1ccc([N+](=O)[O-])cc1[N+](=O)[O-])c1ccc2ccccc2n1 ... 1.8
CC(=O)Oc1ccc([N+](=O)[O-])cc1[N+](=O)[O-] [fragment 43, 2,4-Dinitrophenyl acetate] ... 3.9

For each of the items listed, what is its isoTOP-ABPP ratio (R) at liganded lysine P00367_K480?
1. O=C(Oc1ccc([N+](=O)[O-])cc1[N+](=O)[O-])c1ccc(-c2ccccc2)cc1
2. O=C(Oc1ccc([N+](=O)[O-])cc1[N+](=O)[O-])c1ccc(Oc2ccccc2)cc1 [fragment 39, 2,4-Dinitrophenyl 4-phenoxybenzoate]
3. CC(C)(C)OC(=O)NCCCC(=O)Oc1ccc([N+](=O)[O-])cc1[N+](=O)[O-]
4. O=C(CCc1coc2cc(F)ccc2c1=O)Oc1ccc([N+](=O)[O-])cc1[N+](=O)[O-]

[out]
1: 1.1; 2: 1.0; 3: 3.7; 4: 3.2

[in] Write down isoTOP-ABPP ratio (R) at liganded lysine P00367_K480 measured for item "O=C(Oc1ccc([N+](=O)[O-])cc1[N+](=O)[O-])C1CCN(C(=O)OCc2ccccc2)CC1"
[out] 1.3

====

# measured.target: LDHB L-lactate dehydrogenase B chain (Homo sapiens, UniProt P07195)
# Construct: isoTOP-ABPP experiments performed in cell lysates (in vitro); endogenous in cells; host or cells: MDA-MB-231 soluble lysate
# Sequence (P07195 whole entry): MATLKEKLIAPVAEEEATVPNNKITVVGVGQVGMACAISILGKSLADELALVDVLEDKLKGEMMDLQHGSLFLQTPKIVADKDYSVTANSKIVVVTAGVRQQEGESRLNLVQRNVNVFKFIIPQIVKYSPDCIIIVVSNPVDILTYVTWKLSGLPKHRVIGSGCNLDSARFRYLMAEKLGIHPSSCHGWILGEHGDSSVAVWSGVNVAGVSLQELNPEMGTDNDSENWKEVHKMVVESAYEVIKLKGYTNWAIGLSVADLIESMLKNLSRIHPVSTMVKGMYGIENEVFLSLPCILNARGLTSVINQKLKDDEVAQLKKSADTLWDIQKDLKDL
# measurement.description: competitive isoTOP-ABPP
# Type: binding
# condition.info: 50 uM, in vitro, sol, 231
property.measured: isoTOP-ABPP ratio (R) at liganded lysine P07195_K244
One number for each entry.

Solved entries:
O=C(CCc1coc2cc(F)ccc2c1=O)Oc1ccc([N+](=O)[O-])cc1[N+](=O)[O-] [fragment 36] ... 20.0
O=C(Oc1ccc([N+](=O)[O-])cc1[N+](=O)[O-])c1ccc(-c2ccccc2)cc1 [fragment 37] ... 0.8
CC(C)(C)OC(=O)NCCCC(=O)Oc1ccc([N+](=O)[O-])cc1[N+](=O)[O-] [fragment 41] ... 20.0

For each of the items listed, what is its isoTOP-ABPP ratio (R) at liganded lysine P07195_K244?
1. O=C(Oc1ccc([N+](=O)[O-])cc1[N+](=O)[O-])C1CCN(C(=O)OCc2ccccc2)CC1 [fragment 34]
2. O=C(Oc1ccc([N+](=O)[O-])cc1[N+](=O)[O-])c1ccc(Oc2ccccc2)cc1 [fragment 39, 2,4-Dinitrophenyl 4-phenoxybenzoate]

[out]
[1.0, 1.0]

====

# measured.target: KPNA2 Importin subunit alpha-2 (Homo sapiens, UniProt P52292)
# Construct: isoTOP-ABPP experiments performed in cell lysates (in vitro); endogenous in cells; host or cells: soluble proteome of human cancer cell lines (MDA-MB-231, Ramos, Jurkat)
# measurement.description: competitive isoTOP-ABPP
# Type: binding
# condition.info: 50 uM, in vitro, sol, 231
Please go through the items and note down their isoTOP-ABPP ratio (R) at liganded lysine P52292_K459.
Answers are plain numbers.

Solved entries:
O=C(Oc1ccc([N+](=O)[O-])cc1[N+](=O)[O-])c1ccccc1Nc1cccc(C(F)(F)F)c1 ... 1.7
O=C(CCc1coc2cc(F)ccc2c1=O)Oc1ccc([N+](=O)[O-])cc1[N+](=O)[O-] ... 9.2

In the following, a different compound is considered.
[in] Write down isoTOP-ABPP ratio (R) at liganded lysine P52292_K459 measured for item "CC(C)(C)OC(=O)NCCCC(=O)Oc1ccc([N+](=O)[O-])cc1[N+](=O)[O-]"
[out] 2.3

====

# measured.target: AKR1C3 Aldo-keto reductase family 1 member C3 (Homo sapiens, UniProt P42330)
# Construct: isoTOP-ABPP experiments performed in cell lysates (in vitro); endogenous in cells; host or cells: soluble proteome of human cancer cell lines (MDA-MB-231; Ramos and Jurkat also prepared)
# Sequence (P42330 whole entry): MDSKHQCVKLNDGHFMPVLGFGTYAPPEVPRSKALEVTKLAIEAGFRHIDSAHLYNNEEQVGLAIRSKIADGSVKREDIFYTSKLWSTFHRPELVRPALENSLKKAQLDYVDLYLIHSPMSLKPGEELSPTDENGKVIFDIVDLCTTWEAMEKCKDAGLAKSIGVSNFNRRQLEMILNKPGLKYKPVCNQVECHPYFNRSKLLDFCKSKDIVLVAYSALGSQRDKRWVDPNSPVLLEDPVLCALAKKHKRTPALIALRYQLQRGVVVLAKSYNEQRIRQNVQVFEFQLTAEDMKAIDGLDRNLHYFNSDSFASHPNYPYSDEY
# measurement.description: competitive isoTOP-ABPP
# Format: binding
# condition.info: 50 uM, in vitro, sol, 231
property.measured: isoTOP-ABPP ratio (R) at liganded lysine P42330_K270
Numbers only.

Solved entries:
O=C(Oc1ccc([N+](=O)[O-])cc1[N+](=O)[O-])c1ccccc1Nc1cccc(C(F)(F)F)c1 ... 2.2
O=C(CCc1coc2cc(F)ccc2c1=O)Oc1ccc([N+](=O)[O-])cc1[N+](=O)[O-] ... 0.6
O=C(Oc1ccc([N+](=O)[O-])cc1[N+](=O)[O-])C(c1ccccc1)(c1ccccc1)c1ccccc1 [fragment 42, 2,4-Dinitrophenyl 2,2,2-triphenylacetate] ... 0.9
O=C(Oc1ccc([N+](=O)[O-])cc1[N+](=O)[O-])c1ccc(Oc2ccccc2)cc1 [fragment 39, 2,4-Dinitrophenyl 4-phenoxybenzoate] ... 0.8

For each of the items listed, what is its isoTOP-ABPP ratio (R) at liganded lysine P42330_K270?
1. O=C(Oc1ccc([N+](=O)[O-])cc1[N+](=O)[O-])c1ccc(-c2ccccc2)cc1
2. CC(C)(C)OC(=O)NCCCC(=O)Oc1ccc([N+](=O)[O-])cc1[N+](=O)[O-]
3. O=C(CC12CC3CC(CC(C3)C1)C2)Oc1ccc([N+](=O)[O-])cc1[N+](=O)[O-]
4. O=C(Oc1ccc([N+](=O)[O-])cc1[N+](=O)[O-])c1ccc2ccccc2n1

[out]
1: 0.8; 2: 0.7; 3: 0.9; 4: 0.6

[in] Recall the reported isoTOP-ABPP ratio (R) at liganded lysine P42330_K270 of "O=C(Oc1ccc([N+](=O)[O-])cc1[N+](=O)[O-])C1CCN(C(=O)OCc2ccccc2)CC1" on AKR1C3 Aldo-keto reductase family 1 member C3 (Homo sapiens, UniProt P42330) and write it down.
[out] 1.1

====

# measured.target: HK1 Hexokinase-1 (Homo sapiens)
# Construct: isoTOP-ABPP experiments performed in cell lysates (in vitro); endogenous in cells; host or cells: soluble proteome of human cancer cell lines (MDA-MB-231; Ramos and Jurkat also prepared)
# Sequence (P19367 whole entry): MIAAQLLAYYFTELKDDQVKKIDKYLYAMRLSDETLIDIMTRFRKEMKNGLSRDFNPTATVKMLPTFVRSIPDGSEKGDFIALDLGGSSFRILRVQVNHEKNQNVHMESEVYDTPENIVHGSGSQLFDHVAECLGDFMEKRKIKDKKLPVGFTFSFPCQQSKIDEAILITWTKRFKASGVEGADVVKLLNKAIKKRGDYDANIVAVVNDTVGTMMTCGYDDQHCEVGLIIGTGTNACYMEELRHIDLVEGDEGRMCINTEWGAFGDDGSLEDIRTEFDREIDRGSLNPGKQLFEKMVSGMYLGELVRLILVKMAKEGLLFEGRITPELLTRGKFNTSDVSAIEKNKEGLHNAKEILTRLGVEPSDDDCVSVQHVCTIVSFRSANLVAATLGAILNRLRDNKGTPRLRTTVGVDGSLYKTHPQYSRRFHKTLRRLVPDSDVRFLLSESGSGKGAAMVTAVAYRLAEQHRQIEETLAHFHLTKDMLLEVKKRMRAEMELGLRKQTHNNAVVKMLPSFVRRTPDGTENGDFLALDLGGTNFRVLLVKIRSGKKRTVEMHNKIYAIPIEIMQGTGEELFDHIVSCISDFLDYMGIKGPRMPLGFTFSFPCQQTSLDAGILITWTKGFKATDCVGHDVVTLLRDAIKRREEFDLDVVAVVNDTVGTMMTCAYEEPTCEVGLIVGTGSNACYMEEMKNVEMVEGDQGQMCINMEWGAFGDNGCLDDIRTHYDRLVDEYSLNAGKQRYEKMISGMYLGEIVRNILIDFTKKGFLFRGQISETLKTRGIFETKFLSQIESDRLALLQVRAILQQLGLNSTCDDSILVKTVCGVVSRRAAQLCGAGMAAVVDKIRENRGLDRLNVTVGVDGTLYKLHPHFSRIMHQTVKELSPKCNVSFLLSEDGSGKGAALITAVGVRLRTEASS
# measurement.description: competitive isoTOP-ABPP
# Type: binding
# condition.info: 50 uM, in vitro, sol, 231
property.measured: isoTOP-ABPP ratio (R) at liganded lysine P19367_K510
Give bare numbers.

Solved entries:
CC(=O)Oc1ccc([N+](=O)[O-])cc1[N+](=O)[O-] [fragment 43, 2,4-Dinitrophenyl acetate] ... 20.0
O=C(Oc1ccc([N+](=O)[O-])cc1[N+](=O)[O-])c1ccc(-c2ccccc2)cc1 ... 0.9
O=C(CC12CC3CC(CC(C3)C1)C2)Oc1ccc([N+](=O)[O-])cc1[N+](=O)[O-] ... 1.7
CC(C)(C)OC(=O)NCCCC(=O)Oc1ccc([N+](=O)[O-])cc1[N+](=O)[O-] ... 12.6
O=C(Oc1ccc([N+](=O)[O-])cc1[N+](=O)[O-])C(c1ccccc1)(c1ccccc1)c1ccccc1 [fragment 42, 2,4-Dinitrophenyl 2,2,2-triphenylacetate] ... 0.8

For each of the items listed, what is its isoTOP-ABPP ratio (R) at liganded lysine P19367_K510?
1. O=C(Oc1ccc([N+](=O)[O-])cc1[N+](=O)[O-])c1ccc2ccccc2n1
2. O=C(Oc1ccc([N+](=O)[O-])cc1[N+](=O)[O-])C1CCN(C(=O)OCc2ccccc2)CC1
3. O=C(CCc1coc2cc(F)ccc2c1=O)Oc1ccc([N+](=O)[O-])cc1[N+](=O)[O-]
4. O=C(Oc1ccc([N+](=O)[O-])cc1[N+](=O)[O-])c1ccc(Oc2ccccc2)cc1 [fragment 39, 2,4-Dinitrophenyl 4-phenoxybenzoate]

[out]
[1.1, 20.0, 3.7, 0.9]

====

# measured.target: EEF1G Elongation factor 1-gamma (Homo sapiens)
# Construct: isoTOP-ABPP experiments performed in cell lysates (in vitro); endogenous in cells; host or cells: soluble proteome of human cancer cell lines (MDA-MB-231; Ramos and Jurkat also prepared)
# Sequence (P26641 whole entry): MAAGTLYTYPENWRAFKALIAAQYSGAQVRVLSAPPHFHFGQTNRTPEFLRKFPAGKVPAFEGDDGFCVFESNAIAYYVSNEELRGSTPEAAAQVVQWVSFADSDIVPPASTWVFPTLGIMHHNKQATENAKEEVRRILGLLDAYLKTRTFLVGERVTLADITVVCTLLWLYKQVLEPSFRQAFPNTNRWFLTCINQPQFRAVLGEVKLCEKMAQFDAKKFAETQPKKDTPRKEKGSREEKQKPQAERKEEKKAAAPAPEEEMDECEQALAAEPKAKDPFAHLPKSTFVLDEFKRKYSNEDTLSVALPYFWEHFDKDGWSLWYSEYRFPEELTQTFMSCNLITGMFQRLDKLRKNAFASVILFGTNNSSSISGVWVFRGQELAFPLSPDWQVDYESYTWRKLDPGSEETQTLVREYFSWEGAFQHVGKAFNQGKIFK
# measurement.description: competitive isoTOP-ABPP
# Assay type: binding
# condition.info: 50 uM, 231 sol, in vitro
# Procedure: In vitro covalent fragment treatment for isoTOP-ABPP. All compounds were made up as solutions in DMSO (100×) and were used at a final concentration of 50 μM for activated esters and 100 μM for guanidinylating agents. […] R value calculation and processing. The ratios of light and heavy MS1 peaks for each unique peptide were quantified with a CIMAGE software using default parameters (3 MS1 acquisitions per peak and signal to noise threshold set to 2.5). […]
property.measured: isoTOP-ABPP reactivity ratio at lysine P26641_K227
Answers are plain numbers.

Solved entries:
CCn1cc(C(=O)Oc2c(F)c(F)c(F)c(F)c2F)c(=O)c2ccc(C)nc21 [fragment 28] ... 15.0
O=C(Oc1ccc([N+](=O)[O-])cc1[N+](=O)[O-])c1cc(C(F)(F)F)cc(C(F)(F)F)c1 [fragment 31] ... 2.2
O=C(Oc1ccc([N+](=O)[O-])cc1[N+](=O)[O-])C(c1ccccc1)c1ccccc1 [fragment 30, 2,4-Dinitrophenyl 2,2-diphenylacetate] ... 0.9
O=C(CCc1cn(-c2ccccc2)nc1-c1ccccc1)Oc1ccc([N+](=O)[O-])cc1[N+](=O)[O-] [fragment 29] ... 0.7

For each of the items listed, what is its isoTOP-ABPP reactivity ratio at lysine P26641_K227?
1. O=C(CN1C(=O)c2ccccc2C1=O)Oc1c(F)c(F)c(F)c(F)c1F [fragment 27]
2. O=C(Oc1c(F)c(F)c(F)c(F)c1F)c1ccc2ccccc2n1 [fragment 25]
3. O=C(CCc1coc2cc(F)ccc2c1=O)Oc1c(F)c(F)c(F)c(F)c1F [fragment 26]
4. O=C(Oc1c(F)c(F)c(F)c(F)c1F)C1CCN(C(=O)OCc2ccccc2)CC1 [fragment 24]
5. COc1cc(CCC(=O)Oc2ccc([N+](=O)[O-])cc2[N+](=O)[O-])cc(OC)c1OC [fragment 33]

[out]
1. 1.2
2. 1.1
3. 0.8
4. 0.9
5. 0.7

Every entry's value here was drawn from patent US20210255193A1.
